The following compounds are shown together with reported melting point values.
outcome_measure: melting point

>>> print(df.to_string())
                                   compound  measured_value
0             CN(C)c1ncnc2c(-c3ccncc3)cnn12   184 to 185 °C
1                 CN(C)CSc1ccc(-n2cnnn2)cc1   56 to 57.5 °C
2  O=C(O)c1cc(S(=O)(=O)CCO)ccc1[N+](=O)[O-]   165 to 167 °C
3  CC1=C(/C=C/S(=O)(=O)NC(C)C)C(c2cccc([N+](=O)[O-])c2)C(C(=O)OCC(F)(F)F)=C(C)N1 (stereo not given)   180 to 182 °C
4  CCC(=O)OC(C)(CC)c1nc2c(C(F)(F)F)cccc2c(O)c1C(=O)Nc1ccccn1 (stereo not given)          192 °C

* * *

The following compounds are shown together with reported melting point values.
outcome_measure: melting point

                                   compound  outcome_measure  measured_value
0     O=C(Nc1cccnc1)N1CCc2cc(C(F)(F)F)ccc21    melting point   188 to 189 °C
1  CN(C)Cc1cccc(CSCCNC2=NS(=O)N=C2N)c1 (stereo not drawn)    melting point   122 to 125 °C
2  C[Si](C)(C)/C=C/c1c(N)nc(C2CC2)nc1C(=O)O    melting point   146 to 149 °C

* * *

outcome_measure: melting point

In [3]: df
Out[3]:
                                    compound  measured_value
 0  O=C(NN=C1c2cccc(F)c2SCC1c1ccc(F)cc1)Nc1ccc(C(F)(F)F)cc1 (stereo unspecified)   217 to 219 °C
 1  C[C@H]1C[C@@](O)(c2cccc(S(=O)(=O)c3ccc4c(c3F)CCC(=O)N4C)c2)CCO1   149 to 151 °C
 2                 CCC(=O)c1c(SC)sc(C#N)c1CC     66 to 67 °C
 3  O=C1CC(c2ccc([N+](=O)[O-])cc2)=Nc2cccc(C(F)(F)F)c21        > 260 °C
 4  O=C(CSc1ccc(Cl)c(Cl)c1)C12CC3CC(CC(C3)C1)C2   105 to 110 °C
 5    CCCn1nnn(-c2cc(OC(C)C)c(CBr)cc2Cl)c1=O     68 to 70 °C
 6  O=C(c1cc(-c2ccccc2)ccn1)N(O)Cc1ccc(F)cc1   135 to 140 °C
 7  C[C@@H](Nc1c(Nc2cccnc2)c(=O)c1=O)C(C)(C)C   283 to 285 °C
 8  CCCc1c(OCCCCCCc2cc(O)c(O)c(C(C)C)c2)ccc(C(=O)O)c1O   138 to 140 °C
 9  COc1ccc2c(c1)CC[C@H](CN1CCC3(CC1)C(=O)NCN3c1ccccc1)[C@@H]2O (relative stereo)   182 to 183 °C
10            CCNC(=O)c1c(F)cccc1[Si](C)(C)C     86 to 87 °C
11  CSc1ccc(-c2sc(NC(C)=O)nc2/C=C/c2ccc([N+](=O)[O-])cc2)cc1   228 to 230 °C
12  COC(=O)COc1cc2c(c3c1c(C(=O)C(N)=O)c(C)n3Cc1ccc(F)cc1)CCC2   134 to 136 °C
13  CN=C(NCCCc1nc2cc(C3=NNC(=O)CC3C)ccc2[nH]1)NC(=O)c1ccccc1 (stereo unspecified)          270 °C
14   CCCCNC(=O)/C(=C/C=C/c1cc2ccccc2[nH]1)OC   185 to 186 °C
15  COCC(C)Oc1cc(Oc2ccc(S(C)(=O)=O)cc2)cc2cc(C3=NCC(CC(C)(C)O)S3)[nH]c12 (stereo unspecified)   112 to 113 °C

* * *

outcome_measure: melting point (°C)

>>> print(df.to_string())
                                   compound  outcome_measure  unit_annotation  measured_value
0  Cc1ccc(N2C(=O)C3=C(SCCO3)C2OC(=O)N2CCN(C)CC2)nc1 (stereo not given)    melting point               °C             183
1  OC(CN1CCNC1=S)c1cccc(C(F)(F)F)c1 (stereo not given)    melting point               °C             117

* * *

outcome_measure: melting point

In [3]: df
Out[3]:
                                   compound  measured_value
0  CCSc1ccc(-c2coc3ccc(-c4nnc(C)o4)cc23)cc1   144 to 145 °C
1  Cc1c(C)c(N2CCN(c3nccs3)CC2)c(C)c2c1OC(C)(C)C2   150 to 151 °C
2     CCCCOc1c2c(nc3c1cnn3CC)CCc1ccccc1C2=O   113 to 115 °C
3  CC(C)c1cccc(C(C)C)c1NC(=S)NC1CCCC(C(F)(F)F)C1 (configuration not stated)     67 to 75 °C
4        C=CCCc1cccc2c1C(=O)C1=C(CCCC1)C2=O   111 to 113 °C
5  O=C1c2ccccc2C(=O)N1CCCCN1CCN(C(c2ccccc2)c2ccccc2)CC1   125 to 129 °C
6  CN(C)C(=O)N1CCC(Oc2c(F)c(F)c(F)c(F)c2F)(c2ccccc2)CC1     92 to 96 °C

* * *

outcome_measure: melting point

>>> df
                                    compound  measured_value
 0  CCn1cc(C(=O)O)c(=O)c2cc(F)c(-c3csc(CNC)n3)c(O)c21   242 to 246 °C
 1  CCCNC(=O)Oc1ccc(C(O)(CC)c2ccc(F)cc2)cc1 (configuration not stated)   107 to 108 °C
 2  O=C1CCC2=C1C(c1ccc(F)c(C(F)(F)F)c1)C1=C(CCS1)N2 (configuration not stated)          254 °C
 3                        CC(=O)c1ccc(Cl)cn1     58 to 65 °C
 4  COc1cccc2c(OCc3ccc(C(C)C)cc3)ccc(C=NNC(=O)c3ccc(O)c(Cl)c3)c12        > 250 °C
 5  COc1cc(-c2cc(=O)c3ccccc3o2)cc([N+](=O)[O-])c1OC   216 to 217 °C
 6  CCNC(=O)Nc1nc2cc(-c3cccnc3)cc(N3CCC(N(C)C)C3)n2n1 (configuration not stated)   248 to 250 °C
 7  CNCCN(C)C(=O)[C@@H]1CCCN1S(=O)(=O)c1ccc(Cl)c(COc2cccc3c(-n4ccnc4)cc(C)nc23)c1Cl          116 °C
 8  CCCOc1c(OCCCN2C(=O)c3ccccc3C2=O)cc(C2CCC(c3cc(OC)c(OC)c(OC)c3)O2)cc1S(=O)(=O)CCC (configuration not stated)   195 to 196 °C
 9  CC(O)C(CCCc1ccccc1)n1ncc2c(=O)[nH]c(Cc3ccc(F)cc3)nc21 (configuration not stated)          103 °C
10  COc1ccc(C(=O)Nc2ccccc2)cc1NCc1ccc(C(=O)O)cc1        > 240 °C
11  Cc1ccc(S(=O)(=O)OCC2Cc3cccc(-c4cc(C(F)(F)F)cc(C(F)(F)F)c4)c3O2)cc1 (configuration not stated)   100 to 105 °C
12      O=C(CCC12CCC(=O)N1C(=O)CC2)Nc1ccncc1   285 to 287 °C
13           NC(=O)NN(C(=O)c1ccccc1)c1ccccn1          206 °C
14    Cc1c(-c2ccc(F)cc2)[nH]c(N2CCOCC2)c1C#N   245 to 247 °C
15          COc1cc(/C=C/c2ccc(F)cc2)cc(OC)c1     46 to 48 °C
16  CC(C)c1cccc(C(C)C)c1NC(=O)C(c1ccccc1)n1nnc(C(c2ccccc2)c2ccccc2)n1 (configuration not stated)   180 to 183 °C
17  CCOC(=O)c1cc([N+](=O)[O-])ccc1NC(=O)OC(C)(C)C   118 to 121 °C
18  CS(=O)(=O)Nc1ccccc1OC/C=C/CN1CCC(OC(c2ccccc2)c2cccs2)CC1 (configuration not stated)   114 to 117 °C
19  CCOP(=O)(O)Cc1ccc(NC(=O)CCc2cnoc2-c2ccccc2)cc1     80 to 82 °C
20  COc1cc2cc(C)c(CO)c(-c3ccnc(Br)c3)c2cc1OC   106 to 108 °C
21  O=C(NCCOc1ccc(CC(Oc2ccc(F)cc2)C(=O)O)cc1)c1ccc(-c2ccccn2)cc1 (configuration not stated)   139 to 140 °C

* * *

The following compounds are shown together with reported melting point values.
outcome_measure: melting point

>>> print(df.to_string())
                                    compound  measured_value
 0        Nc1cc(Cl)c(N)c2c1C(=O)c1ccccc1C2=O   207 to 210 °C
 1           CC(C)(C)N[C@H](Cc1ccccc1)C(=O)O     79 to 80 °C
 2                 CCN(CC)c1cccc(CCC(N)=O)c1           59 °C
 3  COC(=O)CCc1cc2cc(Cl)c(Cl)cc2n1S(=O)(=O)c1ccccc1          280 °C
 4  COC(=O)[C@H](Cc1c[nH]c2ccccc12)NC(=O)CCC(=O)[C@H](Cc1ccccc1)NC(=O)OC(C)(C)C     54 to 57 °C
 5  O=C(O)[C@@H](CCN1Cc2ccccc2C1=O)Oc1c(Br)cc(-c2c3ccccc3c(Br)c3sc4ccccc4c23)cc1Br   239 to 241 °C
 6  COc1cc(NC2CC3CCC(C2)N3Cc2ccccc2)ccc1C(N)=O (stereo unspecified)   138 to 140 °C
 7  COc1ccc(-c2[nH]nc3c2C(=O)c2c(NC(=O)CN4CCOCC4)cccc2-3)cc1          295 °C
 8  CN1C(=O)N(c2ccc(Cl)cc2)S(=O)(=O)c2ccc(O)cc21        > 250 °C
 9  CCCC1=C(C(=O)OCC)C(c2cccc3c2OCCC3)c2c[nH]nc2N1 (stereo unspecified)   159 to 161 °C
10              COC(=O)c1ccc(I)cc1S(N)(=O)=O   176 to 177 °C
11  OC1OC2C(Br)C3CC1C2C3 (stereo unspecified)           61 °C
12                   CCOc1ncnc(OCC)c1NC(N)=S          212 °C
13  N#Cc1c(Cl)cccc1SSc1ccc([N+](=O)[O-])cc1C(Cl)(Cl)Cl          137 °C
14  N#CN1CCC2(CC1)C(=O)c1cc(Cl)ccc1Sc1ccccc12          142 °C
15  COc1ccc(-c2c3cccc(C(F)(F)F)c3nn2CC2CCCCC2)c(OC)c1   156 to 157 °C
16  Oc1cc2c(cc1O)OCC(c1ccc(F)cc1)C2 (stereo unspecified)   135 to 137 °C
17    O=C(O)c1cn(-n2cnnc2)c2cc(F)c(F)cc2c1=O          270 °C
18  O=C(O)c1cccc(-c2ccnc3c(C(=O)c4cccs4)cnn23)c1   174 to 177 °C
19    COc1cc(C#N)ccc1C(=O)Nc1cc(Cl)c(Cl)cc1N        > 250 °C
20                  O=Cc1c[nH]c(Cc2ccccc2)n1   130 to 136 °C
21  COc1ccc(C2CNC(=O)C2)cc1OCC(CN1CCN(c2ccccc2)CC1)OC(C)=O (stereo unspecified)   128 to 133 °C
22  CCOc1ccc2c(c1)n(-c1ccccn1)c(=O)n2S(=O)(=O)c1ccc([N+](=O)[O-])cc1OC          175 °C
23  CC1(c2ccc(N)cc2)C(=O)Nc2cc(Cl)cc(Cl)c2C1=O (stereo unspecified)   226 to 227 °C
24        O=[N+]([O-])CS(=O)(=O)c1ccc(F)cc1F     74 to 75 °C
25                   O=C(NCc1cccnc1)C1CCCCC1           90 °C
